Attribution: patent US20150196651A1

- TGT: T1, human PrRP receptor GPR10 (human, UniProt P49683 1-370)
- T1 construct: whole, on cells; also called GPR10 human receptor transfected in CHO cells; human GPR10 receptor
- T1 sequence (looked up): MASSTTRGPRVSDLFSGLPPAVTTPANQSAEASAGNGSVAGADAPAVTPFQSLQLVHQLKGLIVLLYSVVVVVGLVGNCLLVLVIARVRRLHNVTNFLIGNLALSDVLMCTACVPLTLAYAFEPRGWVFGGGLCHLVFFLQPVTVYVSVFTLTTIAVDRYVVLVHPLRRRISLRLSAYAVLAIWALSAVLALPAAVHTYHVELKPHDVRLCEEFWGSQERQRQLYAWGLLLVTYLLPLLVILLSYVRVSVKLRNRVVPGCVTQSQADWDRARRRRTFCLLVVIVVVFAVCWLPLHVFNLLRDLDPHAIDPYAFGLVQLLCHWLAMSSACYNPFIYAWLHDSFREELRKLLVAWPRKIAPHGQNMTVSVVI
- PROTOCOL_DESCRIPTION: competition with 125I-human PrRP31, CHO cells with human GPR10
pKi: −log10 of the molar value. Square brackets hold non-standard residues; d marks the D form. Ends that are not written are not given here. * marks the point of attachment. Phe(F5) = N[C@@H](Cc1c(F)c(F)c(F)c(F)c1F)C(=O)O; Myristoyl = CCCCCCCCCCCCCC(=O)*; PheNO2 = nitrophenylalanine; Decanoyl = CCCCCCCCCC(=O)*; Nle = CCCC[C@H](N)C(=O)O
MEASUREMENT_KIND: pKi

{"columns": ["BINDER", "MEASUREMENT_KIND", "READING"],
 "data": [
  ["Decanoyl-SRAHQHS[Nle]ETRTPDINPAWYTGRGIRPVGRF-NH2 [analog no. 5]", "pKi", 8.84]
]}

I: Myristoyl-SRAHQHS[Nle]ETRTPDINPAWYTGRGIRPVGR[PheNO2]-NH2 [analog no. 17]
II: SRAHQHS[Nle]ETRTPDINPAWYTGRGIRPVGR[Phe(F5)]-NH2 [analog no. 21]
Response body: label of entry with the larger pKi; valid values I , II . Answer = label.
I
(I: 8.80, II: 8.07)
